target: CLC-3 Cl^− channels (neonatal mouse hippocampal CA3 pyramidal neurons) (Mus musculus, UniProt P51791); construct: native channel, CA3 pyramidal neurons in hippocampal slices (P10-12); current largely absent in Clcn3-/- neurons; test: whole-cell patch clamp, voltage-dependent Cl- current in brain slices; conditions: total neuronal Cl- current, no knockout control told
Sequence (P51791 whole entry): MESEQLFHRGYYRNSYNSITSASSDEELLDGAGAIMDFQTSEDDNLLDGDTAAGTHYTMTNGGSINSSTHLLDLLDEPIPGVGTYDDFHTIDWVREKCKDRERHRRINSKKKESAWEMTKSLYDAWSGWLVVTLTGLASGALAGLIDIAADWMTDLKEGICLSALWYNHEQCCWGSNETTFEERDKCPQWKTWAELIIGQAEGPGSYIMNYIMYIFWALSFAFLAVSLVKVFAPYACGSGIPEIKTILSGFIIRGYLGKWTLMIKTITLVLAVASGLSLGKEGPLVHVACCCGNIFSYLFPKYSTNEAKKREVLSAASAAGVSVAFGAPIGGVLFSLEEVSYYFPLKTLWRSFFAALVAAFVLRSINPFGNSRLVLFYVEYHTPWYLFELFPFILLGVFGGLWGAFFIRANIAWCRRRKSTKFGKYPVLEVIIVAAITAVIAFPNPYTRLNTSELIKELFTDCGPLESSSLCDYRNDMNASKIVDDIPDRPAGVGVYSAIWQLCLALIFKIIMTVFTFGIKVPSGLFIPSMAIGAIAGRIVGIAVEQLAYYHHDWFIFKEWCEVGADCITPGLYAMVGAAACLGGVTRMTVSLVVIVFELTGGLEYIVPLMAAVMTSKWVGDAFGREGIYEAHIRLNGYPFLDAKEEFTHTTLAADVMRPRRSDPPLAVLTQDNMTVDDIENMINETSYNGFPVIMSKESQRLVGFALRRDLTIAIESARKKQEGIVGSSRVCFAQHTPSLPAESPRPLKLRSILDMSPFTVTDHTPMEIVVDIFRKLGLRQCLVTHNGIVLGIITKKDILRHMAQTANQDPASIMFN
pIC50: −log10 of the molar value.
RECORDED ENDPOINT: pIC50

SMILES	EXPERIMENTAL VALUE
C[C@@H](O)CC(=O)O	~2.21

Source: paper PMC6518791
